We begin with a simple list: items and their reported IC50.
# assay target: human PAD4 (Homo sapiens, UniProt Q9UM07)
# Construct: human PAD4 (NM_012387), A2P663, was PCR amplified; His-SUMO (N, cleaved yes)
# Sequence (Q9UM07 2-663): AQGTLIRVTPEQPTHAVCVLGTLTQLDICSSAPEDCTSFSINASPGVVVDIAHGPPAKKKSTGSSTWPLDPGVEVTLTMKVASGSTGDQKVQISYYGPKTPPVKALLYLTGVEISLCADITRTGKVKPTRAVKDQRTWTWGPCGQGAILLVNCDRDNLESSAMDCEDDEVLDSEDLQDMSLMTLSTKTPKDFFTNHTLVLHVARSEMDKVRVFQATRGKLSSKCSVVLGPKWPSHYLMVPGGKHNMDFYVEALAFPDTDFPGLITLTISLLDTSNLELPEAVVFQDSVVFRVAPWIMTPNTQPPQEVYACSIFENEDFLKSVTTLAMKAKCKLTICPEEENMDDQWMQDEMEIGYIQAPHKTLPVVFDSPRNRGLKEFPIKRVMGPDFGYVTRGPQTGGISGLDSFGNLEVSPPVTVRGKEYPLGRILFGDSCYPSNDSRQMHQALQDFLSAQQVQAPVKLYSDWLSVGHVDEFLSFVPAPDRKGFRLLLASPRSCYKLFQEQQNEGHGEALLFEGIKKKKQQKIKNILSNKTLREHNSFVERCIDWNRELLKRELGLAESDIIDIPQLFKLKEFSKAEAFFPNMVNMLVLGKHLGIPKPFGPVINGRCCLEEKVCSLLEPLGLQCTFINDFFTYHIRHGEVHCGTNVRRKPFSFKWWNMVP
# protocol details: In vitro PAD4 BAEE biochemical assay
# condition details: human PAD4, BAEE substrate; 5 nM PAD4, 2 mM calcium chloride, 3 mM BAEE; geometric mean of multiple experiments
# Source text: The PCR product was ligated into linearized pET-SUMO vector (Invitrogen, Carlsbad, CA), which is part of the Champion™ pET SUMO Protein Expression System. […] The enzymatic activity of human PAD4 was monitored in a biochemical assay in the presence or absence of compounds using the small peptidyl arginine mimic BAEE (Na-Benzoyl-L-arginine ethyl ester hydrochloride) as substrate. […] Levels of ammonia were monitored by using an amine coupling reaction and were indicative of PAD4 enzymatic activity. […]
I only need the number, in nM, no unit after it.

Observe how each entry below is paired with its result.
compound	reported value
COc1cc(C(=O)N2CC[C@@H](OC)[C@@H](N)C2)cc2nc(-c3cc4ccc(N(C(F)F)S(C)(=O)=O)nc4n3CC3CC3)c(C)n12 [Example 335]	178
COc1cc(C(=O)N2CCC[C@@H](N)C2)cc2nc(-c3cc4ccc([C@@H](C)NC(=O)OC(C)(C)C)nc4n3CC3CC3)c(C)n12 [Example 257]	208
COc1cc(C(=O)N[C@@H]2CC[C@@H]3CC[C@H]2N3)cc2nc(-c3cc4ccc(N(C(F)F)S(C)(=O)=O)nc4n3CC3CC3)c(C)n12 [Example 299]	8050
CS(=O)(=O)N(c1ccc2cc(-c3nc4cc(C(=O)N5CC[C@@H](N)C5)ccn4c3C3CC3)n(CC3CC3)c2n1)C(F)F [Example 393]	2010
COc1cc(C(=O)N2C[C@H](N)C[C@@H]2CF)cc2nc(-c3cc4ccc(N(C(F)F)S(C)(=O)=O)nc4n3CC3CC3)c(C)n12 [Example 353]	26800

Request the reported IC50 associated with COc1cc(C(=O)N2[C@H]3CC[C@@H]2[C@H](N)C3)cc2nc(-c3cc4ccc([C@@H](C)NC(=O)N5CCOCC5)nc4n3CC3CC3)c(C)n12 [Example 241]
54.5

====

# assay target: human PAD4 (Homo sapiens)
# Construct: human PAD4 (NM_012387), A2P663, was PCR amplified; His-SUMO (N, cleaved yes)
# protocol details: In vitro PAD4 BAEE biochemical assay
# condition details: human PAD4, BAEE substrate; 5 nM PAD4, 2 mM calcium chloride, 3 mM BAEE; geometric mean of multiple experiments
readout kind: IC50 (nM)
I only need the number, in nM, no unit after it.

Observe how each entry below is paired with its result.
molecule	IC50 (nM)
COc1cc(C(=O)N2[C@H]3CC[C@@H]2[C@H](N)C3)cc2nc(-c3cc4ccc([C@@H](C)NC(=O)N5CC(OC(F)F)C5)nc4n3CC3CC3)c(C)n12 [Example 205]	34.8
COc1cc(C(=O)N2[C@H]3CC[C@@H]2[C@H](N)C3)cc2nc(-c3cc4ccc([C@@H](C)NC(=O)c5cnn6c5CCC6)nc4n3CC3CC3)c(C)n12 [Example 74]	28.3

Request the reported IC50 associated with CC[C@](C)(O)c1ccc2cc(-c3nc4cc(C(=O)N5[C@H]6CC[C@@H]5[C@H](N)C6)cc(OC)n4c3C)n(CC3CC3)c2n1 [Example 565]
159
